Source: patent US11873298B2

biological target: Ole1 (Saccharomyces cerevisiae); construct: expressed in transfected cells; host or cells: S. cerevisiae ole1Δ strain (W303 pdr1Δ pdr3Δ background), plasmid pRS316 with TDH3 promoter and CYC1 terminator; assay: Growth inhibition of yeast strain expressing Ole1 as sole desaturase; assay type: cell-based; conditions: yeast strain expressing Ole1 as sole desaturase
Sequence (P21147 whole entry): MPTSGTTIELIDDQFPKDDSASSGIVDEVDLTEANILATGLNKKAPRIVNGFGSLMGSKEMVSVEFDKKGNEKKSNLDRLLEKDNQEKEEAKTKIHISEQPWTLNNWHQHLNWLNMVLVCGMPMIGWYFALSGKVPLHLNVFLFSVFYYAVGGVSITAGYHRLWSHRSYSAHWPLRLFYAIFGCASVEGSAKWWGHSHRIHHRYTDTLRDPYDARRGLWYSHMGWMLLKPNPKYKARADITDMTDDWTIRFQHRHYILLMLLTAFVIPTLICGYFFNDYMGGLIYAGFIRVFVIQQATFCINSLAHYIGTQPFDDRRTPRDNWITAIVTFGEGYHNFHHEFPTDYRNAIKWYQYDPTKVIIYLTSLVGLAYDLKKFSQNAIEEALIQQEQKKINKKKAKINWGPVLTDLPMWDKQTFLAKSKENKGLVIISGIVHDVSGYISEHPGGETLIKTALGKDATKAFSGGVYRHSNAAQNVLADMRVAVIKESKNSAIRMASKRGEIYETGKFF
measured_quantity: OLE1 % Max Inhibition

molecule | reported_result
COc1ccc(-c2noc(C3CCN(C(=O)Cc4ccccc4)CC3)n2)cc1OC | 93.69%
CCOc1ncc(-c2noc(C3CCN(C(=O)C4CC(=O)N(c5ccccc5)C4)CC3)n2)cc1OC (stereo not drawn) | 2.75%
Cn1ncc2ccc(-c3noc(C4CCN(C(=O)c5ccnc(-c6ccccc6)c5)CC4)n3)cc21 | 96.63%
COc1ccc(-c2nc(C3CCN(C(=O)CNC(=O)c4ccccc4)CC3)no2)cc1OC | 17.70%
CCOc1ccc(-c2noc(C3CCN(C(=O)CNC(=O)c4ccccc4)CC3)n2)cc1OC | 1.65%
CC(C)c1cccc(C(=O)N2CCC(c3nc(-c4ccc5cnn(C)c5c4)no3)CC2)c1 | 94.02%
Cc1nn(C)c2cc(-c3noc(C4CCN(C(=O)C5CC(=O)N(c6ccc(C#N)cc6)C5)CC4)n3)ccc12 (stereo not drawn) | 25.30%
O=C(NCC(=O)N1CCC(c2nc(-c3cccc(F)c3)no2)CC1)c1ccccc1 | 95.43%
COc1ccc(-c2noc(C3CCN(C(=O)[C@H]4CC(=O)N(c5ccc(C)c(C)c5)C4)CC3)n2)cc1 | 115.95%

* * *

molecular target: SCD5 (Homo sapiens, UniProt Q86SK9); construct: host or cells: S. cerevisiae ole1Δ strain (W303 pdr1Δ pdr3Δ background), plasmid pRS316 with TDH3 promoter and CYC1 terminator; assay: Growth inhibition of humanized yeast strain expressing SCD5 as sole desaturase; format: cell-based; conditions: humanized yeast strain, 40 h
Sequence (Q86SK9 whole entry): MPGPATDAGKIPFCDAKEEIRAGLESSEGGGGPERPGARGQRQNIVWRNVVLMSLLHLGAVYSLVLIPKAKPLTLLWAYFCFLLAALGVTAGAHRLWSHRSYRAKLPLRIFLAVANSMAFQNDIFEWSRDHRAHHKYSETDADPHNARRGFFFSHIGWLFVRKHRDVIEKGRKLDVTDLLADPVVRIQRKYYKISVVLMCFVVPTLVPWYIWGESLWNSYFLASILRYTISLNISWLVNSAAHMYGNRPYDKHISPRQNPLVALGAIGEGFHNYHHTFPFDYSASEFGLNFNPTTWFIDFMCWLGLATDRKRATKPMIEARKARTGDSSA
Items are presented alongside their recorded IC50.
measured_quantity: IC50

compound | reported_result
O=C(N1CCC(c2noc(-c3ccc4cnn(C5COC5)c4c3)n2)CC1)C1(F)CCC1 [Compound 1029] | 10 nM
O=C(N1CCC(c2noc(-c3ccc4cnn(C5COC5)c4c3)n2)CC1)C1(O)CC1 [Compound 903] | 10 nM
CCC(=O)N1CCC(c2noc(-c3ccc4cnn(C5CCOC5)c4c3)n2)CC1 (stereo not drawn) [Compound 975] | 10 nM

* * *

target: SCD5 (Homo sapiens, UniProt Q86SK9); construct: host or cells: S. cerevisiae ole1Δ strain (W303 pdr1Δ pdr3Δ background), plasmid pRS316 with TDH3 promoter and CYC1 terminator; assay: Growth inhibition of humanized yeast strain expressing SCD5 as sole desaturase; assay type: cell-based; conditions: humanized yeast strain expressing SCD5

compound | IC50
COC(=O)N1CCC(c2nc(-c3ccc4c(C)nn(C)c4c3)no2)CC1 | > 45 µM
CCOc1ccc(-c2noc(C3CCN(C(=O)c4cc(-c5ccccc5)no4)CC3)n2)cc1OC | > 45 µM
O=C(CN1Cc2ccccc2C1=O)N1CCC(c2nc(-c3ccc4nonc4c3)no2)CC1 | > 45 µM
CC(C)(C#N)C1CN(c2noc(C3CCN(C(=O)C4CC(=O)N(c5ccccc5)C4)CC3)n2)C1 (stereo not drawn) | > 45 µM
COc1ccc(-c2noc(C3CCN(C(=O)CNC(=O)N4CCCCC4)CC3)n2)cc1OC | > 45 µM
Cc1nn(C)c2cc(-c3nsc(C4CCN(C(=O)CNC(=O)c5ccccc5)CC4)n3)ccc12 | > 45 µM
CC(C)n1ncc2ccc(-c3nc(N4CCN(C(=O)OC(C)(C)C)CC4)no3)cc21 | 0.01 µM
CC1(OC(=O)N2CCC(c3nc(-c4ccc5cnn(C6COC6)c5c4)no3)CC2)CC1 | 0.028 µM
CC(C)c1ccc(C(=O)N2CCC(c3nc(-c4ccc5cnn(C)c5c4)no3)CC2)cc1 | > 45 µM
CC(C)n1ncc2ccc(-c3noc(N4C[C@@H]5CN(C(=O)CC(C)(C)C)C[C@H]5C4)n3)cc21 | > 45 µM
CC(C)n1cc2ccc(-c3noc(C4CCN(C(=O)C5CC(=O)N(c6ccccc6)C5)CC4)n3)cc2n1 (stereo not drawn) | > 45 µM
Cc1nn(C)c2cc(-c3noc(C4CCN(C(=O)CNC(=O)c5ccc(F)cc5)CC4(F)F)n3)ccc12 (stereo not drawn) | 6.03 µM
COc1ccc(-c2noc(C3CCN(C(=O)CNC(=O)c4ccccc4)CC3)n2)cc1OC | > 45 µM
O=C(CC1CC1)N1CCC(c2nc(-c3ccc4cnn(C5COC5)c4c3)no2)CC1 | 1.07 µM
CCOc1ccc(-c2noc(C3CCN(C(=O)C4CN(c5ccccc5)C(=O)CO4)CC3)n2)cc1OC (stereo not drawn) | > 45 µM
CC(C)n1cc2ccc(-c3noc(C4CCN(C(=O)CNC(=O)c5ccccc5)CC4)n3)cc2n1 | > 45 µM
Cc1nn(C)c2cc(-c3noc(C4CCN(C(=O)c5ccccc5C(F)(F)F)CC4)n3)ccc12 | > 45 µM
Cc1nn(C)c2cc(-c3noc(C4CCN(S(=O)(=O)C(C)C)CC4)n3)ccc12 | > 45 µM
O=C(NCC(=O)N1CCC(c2nc(-c3cccc(F)c3)no2)CC1)c1ccccc1 | > 45 µM
CC(C)n1ncc2ccc(-c3noc(C4CCN(C(=O)c5ncccc5Cl)CC4)n3)cc21 | 4.92 µM
CC(C)n1ncc2ccc(-c3noc(C4CCN(C(=O)c5nccs5)CC4)n3)cc21 | 1.21 µM
COc1cccc(-c2noc(C3CCN(C(=O)CNC(=O)c4ccc(C)c(C)c4)CC3)n2)c1 | > 45 µM
Cn1ncc2ccc(-c3noc(N4CCN(C(=O)OC(C)(C)C)CC4)n3)cc21 | 18.9 µM
COc1ccc(CN2CC(C(=O)N3CCC(c4nc(-c5ccc6c(C)nn(C)c6c5)no4)CC3)CC2=O)c(OC)c1 (stereo not drawn) | > 45 µM
CC(C)c1ccc(C(=O)N2CCC(c3nc(N4CC5(COC5)C4)no3)CC2)cc1 | > 45 µM
C[C@H]1CN(c2noc(C3CCN(C(=O)C4CC(=O)N(c5cccc(Cl)c5)C4)CC3)n2)C[C@H](C)O1 (stereo partly drawn) | > 45 µM
Cc1nn(C)c2cc(-c3noc(C4CCN(C(=O)CNC(=O)c5cc(F)ccc5C(F)(F)F)CC4)n3)ccc12 | > 45 µM
